System: Bovine cardiac myofibrils
Protocol details: Dose-dependent myofibril ATPase modulation (calcium-buffered, pyruvate kinase and lactate dehydrogenase-coupled ATPase assay at pCa25)
Type: biochemical
Condition info: concentration at which ATPase activity was 1.4-fold higher than the bottom of the dose curve, mean of a minimum of two independent tests
Description: In Vitro Model of Dose-Dependent Myofibril ATPase Modulation Dose responses were measured using a calcium-buffered, pyruvate kinase and lactate dehydrogenase-coupled ATPase assay containing the following reagents (concentrations expressed are final assay concentrations): Potassium PIPES (12 mM), MgCl2 (2 mM), ATP (1 mM), DTT (1 mM), BSA (0.1 mg/ml), NADH (0.5 mM), PEP (1.5 mM), pyruvate kinase (4 U/ml), lactate dehydrogenase (8 U/ml), and antifoam (90 ppm). […]
Threshold-based label: AC1.4 under 1 µM gives T, AC1.4 not under 1 µM gives F.

| Compound | Class name |
| --- | --- |
| Cc1[nH]c(S(=O)(=O)N[C@@H]2Cc3cc(F)c(Cl)cc3C2)cc1C(=O)N1CC(C(F)(F)F)C1 | T |
| CNc1cc2c(cc1S(=O)(=O)N[C@H](C)Cc1cc3ccc(F)cc3[nH]1)c(=O)[nH]c(=O)n2C | F |
| Cc1[nH]c(S(=O)(=O)NC23CC(c4ccccc4)(C2)C3)cc1C(=O)N1CC(C)(C#N)C1 | F |
| CNc1cc2c(cc1S(=O)(=O)N[C@H]1CC[C@@H](Nc3ccccc3)C1)c(=O)[nH]c(=O)n2C (relative stereo) | T |
| Cc1[nH]c(S(=O)(=O)N[C@@H]2CCc3c([nH]c4ccccc34)C2)cc1C(=O)N1CCCCC1 | F |
| CNc1cc2nc(C)[nH]c(=O)c2cc1S(=O)(=O)Nc1ccc(-c2ccccc2)cc1 | T |
| CNc1ccc(S(=O)(=O)Nc2ccc(N3C[C@H](C)C[C@@H](C)C3)nc2)cc1C(N)=O (relative stereo) | F |
